Numbers sourced from ChEMBL document CHEMBL3352685.

Molecular target: 1,25-dihydroxyvitamin D(3) 24-hydroxylase, mitochondrial (Homo sapiens, UniProt Q07973)
Sequence (Q07973 whole entry): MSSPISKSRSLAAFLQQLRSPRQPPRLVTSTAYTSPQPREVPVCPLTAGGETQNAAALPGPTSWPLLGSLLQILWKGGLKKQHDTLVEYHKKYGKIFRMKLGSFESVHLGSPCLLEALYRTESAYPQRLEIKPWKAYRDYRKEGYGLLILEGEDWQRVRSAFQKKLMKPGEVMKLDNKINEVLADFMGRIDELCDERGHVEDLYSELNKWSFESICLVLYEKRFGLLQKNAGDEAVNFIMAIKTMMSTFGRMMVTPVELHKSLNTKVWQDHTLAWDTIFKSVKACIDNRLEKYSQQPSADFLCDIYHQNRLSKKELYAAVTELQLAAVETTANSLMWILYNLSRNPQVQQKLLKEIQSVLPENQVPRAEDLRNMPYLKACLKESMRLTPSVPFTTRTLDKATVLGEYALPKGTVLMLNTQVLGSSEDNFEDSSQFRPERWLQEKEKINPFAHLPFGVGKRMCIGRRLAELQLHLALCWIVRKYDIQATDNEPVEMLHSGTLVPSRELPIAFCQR
Experiment: Inhibition of human MBP-tagged CYP24A1 expressed in Escherichia coli using 1,25(OH)2D3 substrate in presence of bovine adrenodoxin, adrenodoxin reductase and NADPH incubated at 37 degC for 25 mins by HPLC method
# Lookup of reported IC50 keyed by entry
Enter the number, and then the unit.

Look over these answered cases.
- Compound: "C=C1/C(=C\\C=C2/CCC[C@]3(C)C([C@H](C)C/C=C/S(=O)(=O)C(C)(C)C)=CC[C@@H]23)C[C@@H](O)C[C@@H]1O"
  Recorded metric: "IC50"
  Test result: "0.027 µM"
- Compound: "O=C(NCC(c1ccccc1)n1ccnc1)c1ccc(S(=O)(=O)Nc2ccccc2)cc1 (configuration not stated)"
  Recorded metric: "IC50"
  Test result: "1.3 µM"
- Compound: "CC(C)(C)C(=O)C(Cc1ccc(CCc2ccccc2)cc1)n1ccnc1 (configuration not stated)"
  Recorded metric: "IC50"
  Test result: "0.6 µM"

IN: For COc1cc(/C=C/c2ccc(CCC(OC(=O)n3ccnc3)C(C)(C)C)cc2)cc(OC)c1 (configuration not stated) , write its IC50.
OUT: 0.16 µM

IN: For O=C(NCC(c1ccccc1)n1ccnc1)c1ccc(CCc2ccc(F)cc2)cc1 (configuration not stated) , write its IC50.
OUT: 0.51 µM

IN: For COc1cc(/C=C/c2ccc(C(=O)NCC(c3ccccc3)n3ccnc3)cc2)cc(OC)c1 (configuration not stated) , write its IC50.
OUT: 0.11 µM

IN: For O=C(NCC(c1ccccc1)n1ccnc1)c1ccc(/C=C/c2ccc(F)cc2)cc1 (configuration not stated) , write its IC50.
OUT: 0.26 µM

IN: For COc1ccc(/C=C/c2ccc(C(=O)NCC(c3ccccc3)n3ccnc3)cc2)cc1 (configuration not stated) , write its IC50.
OUT: 0.34 µM

IN: For `CC(C)(C)C(=O)/C(=C/c1ccc(/C=C/c2ccccc2)cc1)n1ccnc1` , write its IC50.
OUT: 0.18 µM

IN: For `COc1cc(/C=C/c2ccc(CCC(=O)C(C)(C)C)cc2)cc(OC)c1` , write its IC50.
OUT: 2.1 µM

IN: For COc1cc(/C=C/c2ccc(C(=O)NCC(c3ccccc3)n3ccnc3)cc2)cc(OC)c1OC (configuration not stated) , write its IC50.
OUT: 0.14 µM

IN: For C=C1/C(=C\C=C2/CCC[C@]3(C)[C@@H]([C@H](C)CCS(=N)(=O)c4ccccc4)CC[C@@H]23)C[C@@H](O)C[C@@H]1O (some centres not stated) , write its IC50.
OUT: 0.0065 µM
